Just for reference, PubChem BioAssay AID1671353 is where these values come from.

- studySystem: Serine/threonine-protein kinase pim-1 (Homo sapiens) (UniProt P11309)
- testDescription: inhibition of PIM1 peptide phosphorylation – biochemical, Z'-LYTE FRET, direct format, recombinant human, dose response (AID 1671353)
attributeMeasured: pIC50
A value of pIC50 is the negative decimal logarithm of a concentration given in moles per litre.

Field pIC50 (Serine/threonine-protein kinase pim-1 (Homo sapiens) (UniProt P11309)), entry `Brc1c(Br)c(Br)c2n[nH]nc2c1Br` : 5.71
